Provenance of the data: patent US20240174622A1

For each record, write down the corresponding Heart.
Test system: LNCaP tumor-transplanted mouse
Test: Internal radioactivity distribution using LNCaP tumor-transplanted mouse
Format: in vivo
Details: 4 h after administration
Experimental: The animal test was performed in compliance with the guidelines of Kyoto University Animal Experiment Committee. […] LNCaP or PC-3 tumor-implanted mice were administered saline solutions (185 kBq, 100 μL) of [^111In]In-PSMA-DA1 or [^111In]In-PSMA-DB from the tail vein (n=3 each). […] Thereafter, blood and each organ were recovered, and the mass and radioactivity of the organs were measured. […]
Entry rule: numbers only, all in % ID/g.

Indicate its recorded Heart; the compound in question is O=C([O-])CN(CCN(CCc1ccc(NC(=O)[C@H](CCCCNC(=O)CCC(=O)NCCCC[C@H](NC(=O)N[C@@H](CCC(=O)O)C(=O)O)C(=O)O)NC(=O)CCCc2ccc(I)cc2)cc1)CCN(CC(=O)[O-])Cc1cccc(C(=O)[O-])n1)Cc1cccc(C(=O)[O-])n1.[111In+3] [[^111In]In-Neunpa-2]
1.78

Name the recorded Heart of the item O=C(O)CC[C@H](NC(=O)N[C@@H](CCCCNC(=O)[C@H](Cc1ccc2ccccc2c1)NC(=O)[C@H]1CC[C@H](CNC(=O)CCC(C(=O)O)N2CCN(CC(=O)O)CCN(C(CCC(=O)N[C@@H](CCCCNC(=O)CCCc3ccc(I)cc3)C(=O)O)C(=O)O)CCN(CC(=O)O)CC2)CC1)C(=O)O)C(=O)O (some centres unmarked) [[^111In]In-PSMA-NAT-DA1, metal not drawn] in your answer.
12.2

Using known records, supply Heart for O=C([O-])CN(Cc1cccc(C(=O)[O-])n1)C[C@H](Cc1ccc(NC(=O)[C@H](CCCCNC(=O)CCC(=O)NCCCC[C@H](NC(=O)N[C@@H](CCC(=O)O)C(=O)O)C(=O)O)NC(=O)CCCc2ccc(I)cc2)cc1)N(CC(=O)[O-])Cc1cccc(C(=O)[O-])n1.[111In+3] [[^111In]In-Octapa-2]
1.89

For the compound O=C([O-])CN1CCN(C(CCC(=O)NCCCC[C@H](NC(=O)N[C@@H](CCC(=O)O)C(=O)O)C(=O)O)C(=O)[O-])CCN(CC(=O)[O-])CCN(C(CCC(=O)Nc2ccccc2)C(=O)[O-])CC1.[111In+3] (some centres unmarked) [[^111In]In-PSMA-DB, reference compound] , report Heart.
0.60

Give Heart for the following compound: O=C([O-])CN(CCN(CCc1ccc(NC(=O)CCCCCNC(=O)CCC(=O)NCCCC[C@H](NC(=O)N[C@@H](CCC(=O)O)C(=O)O)C(=O)O)cc1)CCN(CC(=O)[O-])Cc1cccc(C(=O)[O-])n1)Cc1cccc(C(=O)[O-])n1.[111In+3] [[^111In]In-Neunpa-1, reference compound]
0.47
